Provenance of the data: PubChem BioAssay AID1159580

test-method-notes: chemical genetic growth profiling, strain panel (AID 1159580);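 further: tested at 20 µM; growth read once vehicle control cultures reached saturation at 30 °C; lower values mean less growth of the strain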
run-conditions: S. cerevisiae deletion strains, growth OD, locus YNL250W, strain rad50
Screen size: about 5,500 compounds; about 2,000 (36%) were called active. About 18% were inconclusive and are not listed. No stated cut-off is given here; in the data, active means normalized growth mostly below about 0.91 (no sharp cut-off); inconclusive means no clear call, values can overlap the other calls; inactive means mostly above about 0.92. This is one part of the list.
# valid calls are T = active, F = inactive; nothing else

For orientation, consider the following solved cases.
molecule	answer-label
NS(=O)(=O)c1cc2c(cc1Cl)NC(CSCc1ccccc1)=NS2(=O)=O	F
CC(=O)O[C@@H]1CC2C(C)(C)[C@H](O)C=C[C@]2(C)C2CC[C@]3(C)C(=CC(=O)O[C@H]3c3ccoc3)[C@@]21C (some centres not stated)	F
CC(=O)Oc1cccc(O)c1	F
CN(C)C(=O)Oc1cccc([N+](C)(C)C)c1	F
OC[C@H]1O[C@@H](O[C@@H]2[C@@H](CO)O[C@](O)(CO)[C@H]2O)[C@H](O)[C@@H](O)[C@H]1O	F

Record request — test call for CC(C)CCCC(C)[C@H]1CCC2C3CC=C4CC(=O)CC[C@]4(C)C3CC[C@@]21C (some centres not stated)
F

How was CC(C)CC1NC(=O)CNC1=O (configuration not stated) classified in this test?
F

# outcome recorded in this test, key = "O=C(O)c1cccnc1"
F

Name the outcome recorded for "CCCN(CCC)S(=O)(=O)c1ccc(C(=O)O)cc1" in the assay.
F

Test call for this molecule, please: "OC[C@H]1O[C@@](CO)(O[C@@H]2O[C@H](CO)[C@@H](O)[C@H](O)[C@H]2O)[C@@H](O[C@@H]2O[C@H](CO)[C@@H](O)[C@H](O)[C@H]2O)[C@@H]1O"
F

Dear all, I need the recorded test outcome for "N=C(N)N" , thank you.
F

What is the recorded call for this molecule in the test? CC(C)CCCC(C)[C@H]1CCC2C3CC=C4C[C@@H](O)CC[C@]4(C)C3CC[C@@]21C (some centres not stated)
F

Test call for this molecule, please: CC(C)CCCC(C)C1CCC2C3C[C@@H](O)[C@@]4(O)C[C@@H](O)CC[C@]4(C)C3CC[C@]12C (some centres not stated)
F

Tell me the assay call for "C=C1C[C@]23C[C@@]1(O)CC[C@H]2[C@@]12C=C[C@H](O)[C@@](C)(C(=O)O1)[C@H]2[C@@H]3C(=O)O" please.
F

Per the assay record, what outcome was assigned to "O=C(NCO)c1cccnc1" ?
F

# fetch the recorded call for "COc1cc(C/C=C/c2ccccc2)c(OC)cc1O" here
T

# lookup: test call for C=C(C)C1(O)OC(=O)C=C1OC (configuration not stated)
F

Please state the recorded outcome for this molecule: CC(C)CCCC(C)C1CCC2C3CC(=O)[C@H]4C[C@@H](O)CC[C@]4(C)C3CC[C@]12C (some centres not stated)
F

Please let me know the test result on file for CC(C)c1ccc2c(c1)CCC1C(C)(C(N)=O)CCCC21C (configuration not stated) .
F

Assay result, entry "CC(=O)Oc1ccc(/C=C/c2cc(OC(C)=O)cc(OC(C)=O)c2)cc1" — outcome?
F
